Test: Oral bioavailability in rat 5 mg/kg
Type: ADME, organism-based
Conditions: in vivo
measurement-type: bioavailability (%)
Please reply with the bare figure in % and do not write the unit itself.

Q. Input Cn1cnc2c(F)c(Nc3ccc(Br)cc3Cl)c(C(=O)NOCCO)cc21 , output reported bioavailability.
A. 24

----------
Tested on: A549
Assay: cells
Conditions: Homo sapiens
Description: Antiproliferative activity against human A549 cells harboring K-Ras mutation
measurement-type: IC50
Field: value (include unit after the number)

NC(=O)c1c(Oc2ccc(F)c(NS(N)(=O)=O)c2)cc(F)c(F)c1Nc1ccc(I)cc1F ... 314 nM

Now, please, on to the next molecule.
Q. Input NC(=O)c1c(Oc2cccc(CNS(N)(=O)=O)c2)cc(F)c(F)c1Nc1ccc(I)cc1F , output reported IC50.
A. 185 nM

----------
Experiment: Blood clearance in rat at 0.5 mg/kg, iv or 1 mg/kg, po
Assay type: ADME, organism-based
Each item that follows carries a reported clearance.
Please reply with the bare figure in mL/min/kg and do not write the unit itself.

NC(=O)c1c(Oc2cccc(CNS(N)(=O)=O)c2)cc(F)c(F)c1Nc1ccc(I)cc1F ... 1.17

Now, please, on to the next compound.
Q. Input NC(=O)c1c(Oc2ccc(F)c(NS(N)(=O)=O)c2)cc(F)c(F)c1Nc1ccc(I)cc1F , output reported clearance.
A. 0.333

----------
Tested on: A-375
Experiment: Antiproliferative activity against human A375 cells harboring BRAF(V600E) mutation after 72 hrs by cell titer glow cell titer glow FCTGI assay
Conditions: A-375, 72 h
Each item that follows carries a reported pIC50.
Worth noting: pIC50 values are minus log10 of concentrations stated in mol/L.

Q. Input CCS(=O)(=O)Nc1cccc(Oc2cc(F)c(F)c(Nc3ccc(I)cc3F)c2C(N)=O)c1 , output reported pIC50.
A. 8.62

Q. Input NC(=O)c1c(Oc2ccc(F)c(NS(N)(=O)=O)c2F)cc(F)c(F)c1Nc1ccc(I)cc1F , output reported pIC50.
A. 7.49

Q. Input Cc1c(NS(N)(=O)=O)cccc1Oc1cc(F)cc(Nc2ccc(I)cc2F)c1C(N)=O , output reported pIC50.
A. 8.70

Q. Input NCCS(=O)(=O)Nc1cccc(Oc2cc(F)cc(Nc3ccc(I)cc3F)c2C(N)=O)c1 , output reported pIC50.
A. 7.06

Q. Input NC(=O)c1c(Nc2ccc(I)cc2F)cc(F)cc1Oc1cccc(F)c1NS(N)(=O)=O , output reported pIC50.
A. 6.86

----------
Test: cells
Conditions: Homo sapiens, HCT-116
Description: Antiproliferative activity against human HCT116 cells harboring K-Ras G13D mutation
measurement-type: IC50 (nM)
Please reply with the bare figure in nM and do not write the unit itself.

NC(=O)c1c(Nc2ccc(I)cc2F)cc(F)cc1Oc1cccc(NS(N)(=O)=O)c1Cl ... 87
NC(=O)c1c(Oc2ccc(F)c(NS(N)(=O)=O)c2)cc(F)c(F)c1Nc1ccc(I)cc1F ... 277

Now, please, on to the next molecule.
Q. Input NC(=O)c1c(Nc2ccc(I)cc2F)cc(F)cc1Oc1ccccc1NS(N)(=O)=O , output reported IC50.
A. 2400

----------
Assay: cells
Details: Homo sapiens, HCT-116
pIC50: −log10 of the molar value.
// label = Criterion met if pIC50 is not less than 6, otherwise Criterion not met

NCCS(=O)(=O)Nc1cccc(Oc2cc(F)cc(Nc3ccc(I)cc3F)c2C(N)=O)c1 ... Criterion not met
CN(C)S(=O)(=O)Nc1cccc(Oc2cc(F)c(F)c(Nc3ccc(I)cc3F)c2C(N)=O)c1 ... Criterion met
NC(=O)c1c(Nc2ccc(I)cc2F)cc(F)cc1Oc1ccc(F)c(NS(N)(=O)=O)c1 ... Criterion not met

Q. Could you verify whether the entry CCS(=O)(=O)Nc1cccc(Oc2cc(F)c(F)c(Nc3ccc(I)cc3F)c2C(N)=O)c1 shows pIC50 of no less than 6?
A. Criterion met

Q. Could you verify whether the entry Cn1cnc2c(F)c(Nc3ccc(Br)cc3Cl)c(C(=O)NOCCO)cc21 shows pIC50 of no less than 6?
A. Criterion not met

Q. Could you verify whether the entry NC(=O)c1c(Nc2ccc(I)cc2F)cc(F)cc1Oc1cccc(CS(N)(=O)=O)c1 shows pIC50 of no less than 6?
A. Criterion not met

Q. Could you verify whether the entry NC(=O)c1c(Oc2cccc(CS(N)(=O)=O)c2)cc(F)c(F)c1Nc1ccc(I)cc1F shows pIC50 of no less than 6?
A. Criterion met
